assay: Inhibition of HCV genotype 1a NS5B RNA dependent RNA polymerase C316Y mutant transfected in human HuH7 Lunet replicon cells assessed as reduction in viral replication after 3 days by steady-glo luciferase reporter gene assay
Collected EC50 values appear next to each entry.
API: value field is a number in nM; no unit string.

| compound | EC50, nM |
| --- | --- |
| CNC(=O)c1c(-c2ccc(F)cc2)oc2cc(N3C(=O)OCCC3c3ccc(B(O)O)cc3)c(C3CC3)cc12 (stereo not given) | 310 |
| CNC(=O)c1c(-c2ccc(F)cc2)oc2cc(N(c3cccc(B(O)O)c3)S(C)(=O)=O)c(C3CC3)cc12 | 1900 |
| CNC(=O)c1c(-c2ccc(F)cc2)oc2cc(N3C(=O)OCC3c3ccc(B(O)O)cc3)c(C3CC3)cc12 (stereo not given) | 2000 |
| CNC(=O)c1c(-c2ccc(F)cc2)oc2cc(N3C(=O)OC[C@@H]3c3ccc(B(O)O)c(F)c3)c(C3CC3)cc12 | 24 |

Consider now this further compound.
Would you mind telling me what EC50 value was observed for CNC(=O)c1c(-c2ccc(F)cc2)oc2cc(-n3nccc3-c3ccc(B(O)O)c(F)c3)c(C3CC3)cc12 ?
20
